Hi there, I'd appreciate the recorded Percent Effect for every entry that follows.
Test system: Wolbachia pipientis
Test Details: Anti-Wolbachia Cell-Based Screen
Format: functional
Set-up: scale not given: in the data most compounds retested in dose-response had high values
Conditions: 5 µM
The campaign covered roughly 48,000 compounds. About 13,000 (27%) showed an effect of 50% or more. The list shows a part of the results.
Answer format: numeric, % implied, no suffix.

Task item: What measured Percent Effect goes with CN(CCCc1cc(-c2ccc(F)cc2)n(C)n1)CC(=O)NC(N)=O ?
Reply: 129.4

Task item: What Percent Effect value was documented for this molecule, CC(C)CCC(C)NC(=O)Nc1ccccn1 (stereo not given) ?
Reply: 3.296

Task item: Reported Percent Effect, molecule CCS(=O)(=O)N1Cc2c(Cn3ccnc3)nn(C(C)C)c2C1 : ____
Reply: 9.692

Task item: Item Cc1cnc(N2CCOC3(COCCN(c4nccs4)C3)C2)nc1 (stereo not given) has what recorded Percent Effect?
Reply: 7.245

Task item: Requested field: Percent Effect. Item: N#Cc1cccnc1OC1CCN(C(=O)c2cc(C3CC3)on2)CC1
Reply: -1.829

Task item: Give its Percent Effect value. Item: CC(N1CCN(C(=O)NCc2cccc(C#N)c2)CC1)C(F)(F)F (stereo not given)
Reply: -0.6976

Task item: # get_value(readout='Percent Effect', item= Cc1ccc(NC(=O)NC(C)Cn2cccn2)cc1 (stereo not given) )
Reply: -6.589

Task item: Consider the molecule CN(CC(=O)NS(=O)(=O)c1ccc(F)cc1)Cc1ccccc1 and give its measured Percent Effect.
Reply: -17.38

Task item: Fill in the blank: the reported Percent Effect of CC(Cn1cccn1)NC(=O)Nc1ccccn1 (stereo not given) is ____.
Reply: 102.9

Task item: Look up Percent Effect for this molecule: CN(CCCc1cc(-c2ccc(F)cc2)n(C)n1)CC(N)=O
Reply: 124.4

Task item: Suppose we examine the molecule Cc1ccc(N2CCCC3(COCCN(c4ccccn4)C3)C2)nn1.O=C(O)C(F)(F)F (stereo not given) ; what Percent Effect value has been reported?
Reply: 88.94

Task item: What value of measured Percent Effect is listed for Cc1cccnc1NC(=O)NC(C)Cn1cccn1 (stereo not given) ?
Reply: 2.456

Task item: What does the data say about its Percent Effect? Entry: Cc1nnc(NC(=O)NC(C)Cn2cccn2)s1 (stereo not given)
Reply: 98.41

Task item: Bench note: what Percent Effect did O=C(C1SCCc2sccc21)N1CC(O)C1 (stereo not given) show?
Reply: -8.874

Task item: Query: Percent Effect; subject: NC(=O)NC(=O)CCn1ccc(-c2ccc(F)cc2)n1
Reply: -9.81

Task item: Which Percent Effect value is on record for CC(C)Cc1cc(C(=O)NCC(c2ccc(F)cc2)N(C)C)n(C)n1 (stereo not given) ?
Reply: -14.68

Task item: // returns reported Percent Effect for input c1ccc(N2CCOCC3(CCCN(c4nccs4)C3)C2)nc1 (stereo not given)
Reply: 105.2

Task item: What value of Percent Effect has been recorded for this entry: CC(C(N)=O)N(C)CCCc1cc(-c2ccc(F)cc2)n(C)n1 (stereo not given)
Reply: 117.2

Task item: Query: Percent Effect; subject: c1ccc(CN2CCC(NCCSc3cnn[nH]3)C2)cc1 (stereo not given)
Reply: -16.66

Task item: State the recorded Percent Effect for this entry: CN(CC(N)=O)Cc1ccc(F)cc1Cl
Reply: -24.21

Task item: May I ask what Percent Effect has been recorded for CCN(Cc1ccc2c(c1)OCCO2)C(=O)NC(C)Cn1ccnc1 (stereo not given) ?
Reply: 1.976

Task item: Return reported Percent Effect; argument: COC(C)(C)CC(C)NC(=O)Nc1ccccn1 (stereo not given)
Reply: 11.35

Task item: Value lookup for Percent Effect; key = CC(Cn1cccn1)NC(=O)NCc1ccccn1 (stereo not given)
Reply: -2.779

Task item: What Percent Effect value was documented for this molecule, CC(Cn1cccn1)NC(=O)Nc1nnc(C2CC2)s1 (stereo not given) ?
Reply: -3.463

Task item: Record request: Percent Effect value, item CCCc1nnc(NC(=O)NC(C)Cn2cccn2)s1 (stereo not given)
Reply: 106.7
